assay: Transdermal delivery of melatonin: plasma level of melatonin after applying composition to skin of a subject; conditions: human, plasma, topical, Plasma level of melatonin, 3-(Diethylamino)propyl 2-acetoxybenzoate hydrochloride 212.24 mM, 0.375 mL applied to skin, 0 hr after transdermal administration
assay-readout: concentration at 0 h
Units required after the number.

Specify reported concentration at 0 h for the compound shown: COc1ccc2[nH]cc(CCNC(C)=O)c2c1
0 ng/mL

----------
assay: Transdermal delivery of melatonin: plasma level of melatonin after applying composition to skin of a subject; conditions: human, plasma, topical, 3 mg, Plasma level of melatonin, Tyrosine propyl ester 269.5 mM, 0.30 mL applied to skin, 8 hr after transdermal administration
assay-readout: concentration at 8 hr (ng/mL)
Your answer should be a plain number; it is taken to be in ng/mL.

Specify reported concentration at 8 hr for the molecule shown: COc1ccc2[nH]cc(CCNC(C)=O)c2c1 [Melatonin]
2.6

----------
experiment: Transdermal delivery of melatonin: plasma level of melatonin after applying composition to skin of a subject; conditions: human, plasma, topical, 3 mg, Plasma level of melatonin, Isoleucine hexyl ester 278.04 mM, 0.60 mL applied to skin, 1 hr after transdermal administration
assay-readout: concentration at 1 hr (ng/mL)
Your answer should be a plain number; it is taken to be in ng/mL.

Specify reported concentration at 1 hr for the compound shown: COc1ccc2[nH]cc(CCNC(C)=O)c2c1
1.2

----------
assay: clinical; settings: human, plasma, topical, 3 mg
assay-readout: concentration at 1 hr (ng/mL)
Your answer should be a plain number; it is taken to be in ng/mL.

Specify reported concentration at 1 hr for the compound shown: COc1ccc2[nH]cc(CCNC(C)=O)c2c1 [Melatonin]
1.6

----------
assay: Transdermal delivery of melatonin: plasma level of melatonin after applying composition to skin of a subject; settings: human, plasma, topical, Plasma level of melatonin, salt of tyrosine isopropyl ester, A− = Cl^−, 269.51 mM, 0.30 mL applied, 0 hr after transdermal administration
assay-readout: concentration at 0 h (ng/mL)
Your answer should be a plain number; it is taken to be in ng/mL.

Specify reported concentration at 0 h for the compound shown: COc1ccc2[nH]cc(CCNC(C)=O)c2c1 [Melatonin]
0

----------
test: Transdermal delivery of melatonin: plasma level of melatonin after applying composition to skin of a subject; conditions: human, plasma, topical, Plasma level of melatonin, Proline methyl ester hydrochloride 422.66 mM, 0.60 mL applied to skin, 0 hr after transdermal administration
assay-readout: concentration at 0 h (ng/mL)
Your answer should be a plain number; it is taken to be in ng/mL.

Specify reported concentration at 0 h for the compound shown: COc1ccc2[nH]cc(CCNC(C)=O)c2c1
0

----------
test system: human skin tissue; experiment: Penetration rate of AI compound in AI-helper composition through human skin in vitro, modified Franz cells; format: in vitro ADME; conditions: no leucine ester (None); AI compound 0.5 % w/v in water; 25 °C
Would you kindly list Skin penetration rate of AI compound for each of these compounds?
Your answer should be a plain number; it is taken to be in μg/cm^2/h.

Specify reported Skin penetration rate of AI compound for the compound shown: Oc1ccc(C=Cc2cc(O)cc(O)c2)cc1 [Resveratrol]
0.013

Specify reported Skin penetration rate of AI compound for the compound shown: O=C(O)CCCCC1CCSS1 (stereo not drawn) [Alpha-lipoic acid]
0.051

Specify reported Skin penetration rate of AI compound for the compound shown: CC1=C(/C=C/C(C)=C/C=C/C(C)=C/C=C/C=C(C)/C=C/C=C(C)/C=C/C2=C(C)C(=O)[C@@H](O)CC2(C)C)C(C)(C)C[C@H](O)C1=O [Astaxanthin]
0.010

Specify reported Skin penetration rate of AI compound for the compound shown: CC1=C(/C=C/C(C)=C/C=C/C(C)=C/C=C/C=C(C)/C=C/C=C(C)/C=C/C2=C(C)CCCC2(C)C)C(C)(C)CCC1 [Beta Carotene]
0.012

Specify reported Skin penetration rate of AI compound for the compound shown: Cc1ncc(CO)c(CO)c1O.Cl [Vitamin B6]
0.029

Specify reported Skin penetration rate of AI compound for the compound shown: Nc1nc2ncc(CNc3ccc(C(=O)N[C@@H](CCC(=O)O)C(=O)O)cc3)nc2c(=O)[nH]1 [Folic acid]
0.007

Specify reported Skin penetration rate of AI compound for the compound shown: O=C1O[C@H]([C@@H](O)CO)C(O)=C1O [Vitamin C]
0.008

Specify reported Skin penetration rate of AI compound for the compound shown: N[C@@H](CCC(=O)N[C@@H](CS)C(=O)NCC(=O)O)C(=O)O [Glutathione]
0.011

Specify reported Skin penetration rate of AI compound for the compound shown: NCCS(=O)(=O)O [Taurine]
0.008
